Test system: Murine peritoneal macrophages
Experiment summary: MTT-test
Condition context: mouse, 24 h
Procedure: Before the cells extraction, mice were sacrificed by cervical dislocation in accordance with the supplement to the Directive 86/609/EEC and its update Directive 2010/63/EU addressing the recommendations for euthanasia of experimental animals (Close et al., [1996]). To obtain peritoneal macrophages, healthy mice were used. The abdominal cavity of each animal was washed with 3 ml of sterile PBS using a Pasteur pipette. […]
Readout name: MEC of cytotoxic action

| Molecule | Result |
| --- | --- |
| Cc1onc(-c2ccccc2)c1C(=O)N[C@@H]1C(=O)N2[C@@H]1SC(C)(C)[C@@H]2C(=O)O | >50 [100] μM |
| CNC(C)C1CCC(N)C(OC2C(N)CC(N)C(OC3OCC(C)(O)C(NC)C3O)C2O)O1 (stereo not shown) | >50 [100] μM |
| CC1COc2c(N3CCN(C)CC3)c(F)cc3c(=O)c(C(=O)O)cn1c23 (stereo not shown) | >50 [100] μM |
| CO[C@H]1/C=C/O[C@@]2(C)Oc3c(C)c(O)c4c(O)c(c(/C=N/N5CCN(C)CC5)c(O)c4c3C2=O)NC(=O)/C(C)=C\C=C\[C@H](C)[C@H](O)[C@@H](C)[C@@H](O)[C@@H](C)[C@H](OC(C)=O)[C@@H]1C | >20 [40] μM |

====

Test system: K. pneumoniae ESBL 344/17
Experiment summary: Checkerboard titration (FICI)
Type: cell-based, Klebsiella pneumoniae
Condition context: antibiotic in combination with ChBac3.4

| Molecule | System tested | Minimal FICI |
| --- | --- | --- |
| C[C@@H](O)[C@H]1C(=O)N2C(C(=O)O)=C(S[C@@H]3CN[C@H](C(=O)N(C)C)C3)[C@H](C)[C@H]12 [Meropenem] | K. pneumoniae ESBL 344/17 | 1.0 |
| CC1COc2c(N3CCN(C)CC3)c(F)cc3c(=O)c(C(=O)O)cn1c23 (centres unmarked) [Ofloxacin] | K. pneumoniae ESBL 344/17 | 0.75 |
| Cc1onc(-c2ccccc2)c1C(=O)N[C@@H]1C(=O)N2[C@@H]1SC(C)(C)[C@@H]2C(=O)O [Oxacillin] | K. pneumoniae ESBL 344/17 | 1.12 |
| NCC[C@H](O)C(=O)N[C@@H]1C[C@H](N)[C@@H](O[C@H]2O[C@H](CN)[C@@H](O)[C@H](O)[C@H]2O)[C@H](O)[C@H]1O[C@H]1O[C@H](CO)[C@@H](O)[C@H](N)[C@H]1O [Amikacin] | K. pneumoniae ESBL 344/17 | 0.38 |

====

System: MRSA ATCC 33591
Experiment summary: microbe, parasite or virus in culture
Format: cell-based, Staphylococcus aureus
Condition context: Staphylococcus aureus, median of 3–6 experiments, square brackets = twice the maximal tested concentration, read-out: MIC
Below, each entry is listed alongside its reported MIC.

| Compound | System tested | MIC |
| --- | --- | --- |
| Cc1onc(-c2ccccc2)c1C(=O)N[C@@H]1C(=O)N2[C@@H]1SC(C)(C)[C@@H]2C(=O)O [Oxacillin] | MRSA ATCC 33591 | 7.5 µM |
| CC1COc2c(N3CCN(C)CC3)c(F)cc3c(=O)c(C(=O)O)cn1c23 (stereo not shown) [Ofloxacin] | MRSA ATCC 33591 | 0.625 µM |
| CO[C@H]1/C=C/O[C@@]2(C)Oc3c(C)c(O)c4c(O)c(c(/C=N/N5CCN(C)CC5)c(O)c4c3C2=O)NC(=O)/C(C)=C\C=C\[C@H](C)[C@H](O)[C@@H](C)[C@@H](O)[C@@H](C)[C@H](OC(C)=O)[C@@H]1C [Rifampicin] | MRSA ATCC 33591 | 0.003 µM |
| CNC(C)C1CCC(N)C(OC2C(N)CC(N)C(OC3OCC(C)(O)C(NC)C3O)C2O)O1 (stereo not shown) [Gentamicin] | MRSA ATCC 33591 | 0.16 µM |

====

Below, each entry is listed alongside its reported MIC.
Test system: E. coli ESBL 521/17
Experiment summary: microbe, parasite or virus in culture
Format: cell-based
Condition context: Escherichia coli, ESBL521/17; E. coli ESBL 521/17, drug-resistant clinical isolate; square brackets = twice the maximal tested concentration

| Molecule | Value units | Sign | MIC |
| --- | --- | --- | --- |
| C[C@@H](O)[C@H]1C(=O)N2C(C(=O)O)=C(S[C@@H]3CN[C@H](C(=O)N(C)C)C3)[C@H](C)[C@H]12 | µM | = | 0.04 |
| NCC[C@H](O)C(=O)N[C@@H]1C[C@H](N)[C@@H](O[C@H]2O[C@H](CN)[C@@H](O)[C@H](O)[C@H]2O)[C@H](O)[C@H]1O[C@H]1O[C@H](CO)[C@@H](O)[C@H](N)[C@H]1O | µM | = | 1 |
| CC[C@H]1OC(=O)[C@H](C)[C@@H](O[C@H]2C[C@@](C)(OC)[C@@H](O)[C@H](C)O2)[C@H](C)[C@@H](O[C@@H]2O[C@H](C)C[C@H](N(C)C)[C@H]2O)[C@](C)(O)C[C@@H](C)C(=O)[C@H](C)[C@@H](O)[C@]1(C)O | µM | > | 50 |
| CC1COc2c(N3CCN(C)CC3)c(F)cc3c(=O)c(C(=O)O)cn1c23 (centres unmarked) | µM | = | 50 |
| Cc1onc(-c2ccccc2)c1C(=O)N[C@@H]1C(=O)N2[C@@H]1SC(C)(C)[C@@H]2C(=O)O | µM | > | 50 |

====

Tested on: Human PBMC
Experiment summary: MTT-test
Condition context: human, 24 h
Below, each entry is listed alongside its reported MEC of cytotoxic action.

| Compound | System tested | MEC of cytotoxic action |
| --- | --- | --- |
| CC1COc2c(N3CCN(C)CC3)c(F)cc3c(=O)c(C(=O)O)cn1c23 (stereo not shown) | Human PBMC | >50 [100] μM |
| CO[C@H]1/C=C/O[C@@]2(C)Oc3c(C)c(O)c4c(O)c(c(/C=N/N5CCN(C)CC5)c(O)c4c3C2=O)NC(=O)/C(C)=C\C=C\[C@H](C)[C@H](O)[C@@H](C)[C@@H](O)[C@@H](C)[C@H](OC(C)=O)[C@@H]1C | Human PBMC | >20 [40] μM |
| CNC(C)C1CCC(N)C(OC2C(N)CC(N)C(OC3OCC(C)(O)C(NC)C3O)C2O)O1 (stereo not shown) | Human PBMC | >50 [100] μM |
| Cc1onc(-c2ccccc2)c1C(=O)N[C@@H]1C(=O)N2[C@@H]1SC(C)(C)[C@@H]2C(=O)O | Human PBMC | >50 [100] μM |

====

Below, each entry is listed alongside its reported Minimal FICI.
Tested on: K. pneumoniae ESBL 344/17
Experiment summary: Checkerboard titration (FICI)
Assay type: cell-based, Klebsiella pneumoniae
Condition context: antibiotic in combination with PG-1
Experimental: The combined antimicrobial action of AMPs and other antimicrobial compounds was assessed using checkerboard titration approach under the conditions similar to that of the microdilution assay. […] The results were recorded after the overnight incubation, visually indicating the presence or absence of the microbial growth in the corresponding wells. Based on the obtained data the isobolograms of combined action were plotted and/or Fractional Inhibitory Concentration Indices (FICI) were calculated. […]

| Molecule | System tested | Minimal FICI |
| --- | --- | --- |
| Cc1onc(-c2ccccc2)c1C(=O)N[C@@H]1C(=O)N2[C@@H]1SC(C)(C)[C@@H]2C(=O)O | K. pneumoniae ESBL 344/17 | 1.12 |
| C[C@@H](O)[C@H]1C(=O)N2C(C(=O)O)=C(S[C@@H]3CN[C@H](C(=O)N(C)C)C3)[C@H](C)[C@H]12 | K. pneumoniae ESBL 344/17 | 1.0 |
| NCC[C@H](O)C(=O)N[C@@H]1C[C@H](N)[C@@H](O[C@H]2O[C@H](CN)[C@@H](O)[C@H](O)[C@H]2O)[C@H](O)[C@H]1O[C@H]1O[C@H](CO)[C@@H](O)[C@H](N)[C@H]1O | K. pneumoniae ESBL 344/17 | 0.31 |
| CC1COc2c(N3CCN(C)CC3)c(F)cc3c(=O)c(C(=O)O)cn1c23 (centres unmarked) | K. pneumoniae ESBL 344/17 | 0.5 |

====

System: S. aureus 1399/17
Experiment summary: Checkerboard titration (FICI)
Type: cell-based, Staphylococcus aureus
Condition context: antibiotic in combination with PG-1
Marks after values point to notes of the source that are not given here.
Readout name: Minimal FICI

| Compound | Readout name | Result |
| --- | --- | --- |
| C[C@@H](O)[C@H]1C(=O)N2C(C(=O)O)=C(S[C@@H]3CN[C@H](C(=O)N(C)C)C3)[C@H](C)[C@H]12 [Meropenem] | Minimal FICI | 0.25^* |
| NCC[C@H](O)C(=O)N[C@@H]1C[C@H](N)[C@@H](O[C@H]2O[C@H](CN)[C@@H](O)[C@H](O)[C@H]2O)[C@H](O)[C@H]1O[C@H]1O[C@H](CO)[C@@H](O)[C@H](N)[C@H]1O [Amikacin] | Minimal FICI | 1.0 |
| CC1COc2c(N3CCN(C)CC3)c(F)cc3c(=O)c(C(=O)O)cn1c23 (centres unmarked) [Ofloxacin] | Minimal FICI | 0.56 |
| CC[C@H]1OC(=O)[C@H](C)[C@@H](O[C@H]2C[C@@](C)(OC)[C@@H](O)[C@H](C)O2)[C@H](C)[C@@H](O[C@@H]2O[C@H](C)C[C@H](N(C)C)[C@H]2O)[C@](C)(O)C[C@@H](C)C(=O)[C@H](C)[C@@H](O)[C@]1(C)O [Erythromycin] | Minimal FICI | 0.75 |
| Cc1onc(-c2ccccc2)c1C(=O)N[C@@H]1C(=O)N2[C@@H]1SC(C)(C)[C@@H]2C(=O)O [Oxacillin] | Minimal FICI | 1.12 |
